Test: Lipophilicity, logD of the compound in Octanol/phosphate buffer at pH 7.4 after 30 mins by shake-flask method
Assay type: physicochemical
// reported logD at 0.5 h per item
readout label: logD at 0.5 h

>>> data_value("CNC(=O)c1ccc(-c2cnc(NCc3c(F)ccc4c3CCO4)c3cn[nH]c(=O)c23)c(C)n1")
2.9
>>> data_value("CC(=O)N1CCC(c2cnc(NCc3c(F)ccc4c3CCO4)c3cn[nH]c(=O)c23)CC1")
2.9
>>> data_value("O=C1Cc2ccccc2CN1c1cnc(NCc2c(F)ccc3c2CCO3)n2cnnc12")
2.7
>>> data_value("CN(c1cccnc1)c1cnc(NCc2c(F)ccc3c2CCO3)n2cnnc12")
2.6
